Test system: Escherichia coli TOP10
Assay: shrunken log2 fold change of peptide-encoding DNA abundance (4.5 h post-induction vs induction); higher = less antimicrobial activity (less host growth inhibition)
Details: time post-induction: 4.5 h; library: site-saturation at positions 5, 18, 19, 20
Returns Yes if the recorded shrunken log2 fold change is greater than or equal to -0.0008, and No otherwise.

API: above_or_equal(metric=shrunken log2 fold change, cutoff=-0.0008) for item RRIRERPPRLPRPRPRPNNGPRP
No

Hi team, for RRIRPRPPRLPRPRPRPQSFPRP , is the recorded shrunken log2 fold change at or above -0.0008?
Yes

Hi team, for RRIRQRPPRLPRPRPRPLAIPRP , is the recorded shrunken log2 fold change at or above -0.0008?
No

API: above_or_equal(metric=shrunken log2 fold change, cutoff=-0.0008) for item RRIRHRPPRLPRPRPRPVSYPRP
No

Exam item: decide whether the reported shrunken log2 fold change for RRIRVRPPRLPRPRPRPLSEPRP is at least -0.0008.
Yes

Threshold query (shrunken log2 fold change >= -0.0008) on RRIRHRPPRLPRPRPRPRWCPRP
Yes

Can RRIRERPPRLPRPRPRPDVMPRP be said to have shrunken log2 fold change at or above -0.0008?
Yes

Is it the case that RRIRCRPPRLPRPRPRPSCYPRP has shrunken log2 fold change reaching or exceeding -0.0008?
No

In plain terms: is recorded shrunken log2 fold change at least -0.0008 for RRIRIRPPRLPRPRPRPKIFPRP ?
Yes

Is shrunken log2 fold change at least -0.0008? Consider RRIRQRPPRLPRPRPRPDPQPRP
No

Would you say RRIRCRPPRLPRPRPRPPKGPRP shows shrunken log2 fold change at minimum -0.0008?
Yes

In plain terms: is recorded shrunken log2 fold change at least -0.0008 for RRIRIRPPRLPRPRPRPDIFPRP ?
No

Kindly determine if shrunken log2 fold change recorded for RRIRARPPRLPRPRPRPWKWPRP is above or exactly -0.0008.
No

Could you tell me if the measured shrunken log2 fold change of RRIRSRPPRLPRPRPRPEMPPRP reaches -0.0008 or more?
Yes

For this sequence, is measured shrunken log2 fold change -0.0008 or higher? RRIRYRPPRLPRPRPRPFQCPRP
No

Check if shrunken log2 fold change >= -0.0008 (inclusive). Item: RRIRFRPPRLPRPRPRPGVHPRP
No

Does the reported shrunken log2 fold change for RRIRFRPPRLPRPRPRPRDKPRP fall at or above the -0.0008 mark?
No

Threshold query (shrunken log2 fold change >= -0.0008) on RRIRARPPRLPRPRPRPVYAPRP
Yes

Has RRIRARPPRLPRPRPRPQHSPRP a recorded shrunken log2 fold change greater than or equal to -0.0008?
Yes

Reported shrunken log2 fold change at or above -0.0008? RRIRWRPPRLPRPRPRPATHPRP
Yes

Can RRIRYRPPRLPRPRPRPKDQPRP be said to have shrunken log2 fold change at or above -0.0008?
No

Dear colleague, could you confirm whether RRIRGRPPRLPRPRPRPVPHPRP has shrunken log2 fold change at or above -0.0008?
No

Can RRIRRRPPRLPRPRPRPDCKPRP be said to have shrunken log2 fold change at or above -0.0008?
No

Tell me whether shrunken log2 fold change is at least -0.0008 here: RRIRYRPPRLPRPRPRPNFLPRP
No

Given the entry RRIRYRPPRLPRPRPRPCFTPRP , answer whether its shrunken log2 fold change meets or surpasses -0.0008.
No

Does the reported shrunken log2 fold change for RRIRSRPPRLPRPRPRPTIGPRP fall at or above the -0.0008 mark?
Yes

Assess whether reported shrunken log2 fold change for RRIRNRPPRLPRPRPRPGFKPRP sits at -0.0008 or higher.
No

I'd appreciate it if you could say whether RRIRCRPPRLPRPRPRPATPPRP has shrunken log2 fold change at least equal to -0.0008.
Yes

hey, is shrunken log2 fold change for this one >= -0.0008? RRIRVRPPRLPRPRPRPRKKPRP
Yes

Determine whether measured shrunken log2 fold change meets or exceeds -0.0008 for RRIRVRPPRLPRPRPRPIEWPRP
Yes

Kindly determine if shrunken log2 fold change recorded for RRIRRRPPRLPRPRPRPGPHPRP is above or exactly -0.0008.
Yes

hey, is shrunken log2 fold change for this one >= -0.0008? RRIRLRPPRLPRPRPRPTNDPRP
No

* * *

Test system: Escherichia coli TOP10
Assay: shrunken log2 fold change of peptide-encoding DNA abundance (4.5 h post-induction vs induction); higher = less antimicrobial activity (less host growth inhibition)
Conditions: time post-induction: 4.5 h; library: site-saturation at positions 5, 18, 19, 20
Criterion: shrunken log2 fold change meeting or surpassing 0.04. Met: satisfied. Not met: not satisfied.

Test whether the sequence RRIRERPPRLPRPRPRPPPSPRP records shrunken log2 fold change of 0.04 or higher.
satisfied

# bool: shrunken log2 fold change of RRIRSRPPRLPRPRPRPPYWPRP >= 0.04
satisfied

Does shrunken log2 fold change meet or surpass 0.04 for RRIRFRPPRLPRPRPRPNLCPRP ?
not satisfied

Check if shrunken log2 fold change >= 0.04 (inclusive). Item: RRIRMRPPRLPRPRPRPKGDPRP
satisfied

# bool: shrunken log2 fold change of RRIRARPPRLPRPRPRPSSMPRP >= 0.04
not satisfied

Dear colleague, could you confirm whether RRIRIRPPRLPRPRPRPPSCPRP has shrunken log2 fold change at or above 0.04?
not satisfied

Assess whether reported shrunken log2 fold change for RRIRDRPPRLPRPRPRPPLPPRP sits at 0.04 or higher.
satisfied

Item RRIRQRPPRLPRPRPRPFNKPRP with shrunken log2 fold change of 0.04 or above?
not satisfied

Decide: shrunken log2 fold change of RRIRVRPPRLPRPRPRPWADPRP >= 0.04?
not satisfied

Please tell me: is the sequence RRIRERPPRLPRPRPRPFSVPRP at or over 0.04 in terms of shrunken log2 fold change?
not satisfied

Reported shrunken log2 fold change reaches at least 0.04 for RRIRRRPPRLPRPRPRPYAPPRP ?
not satisfied

Determine whether measured shrunken log2 fold change meets or exceeds 0.04 for RRIRARPPRLPRPRPRPCEIPRP
satisfied

Is shrunken log2 fold change for RRIRPRPPRLPRPRPRPRGSPRP at or above 0.04?
satisfied

Dear colleague, could you confirm whether RRIRFRPPRLPRPRPRPYTCPRP has shrunken log2 fold change at or above 0.04?
not satisfied

Is reported shrunken log2 fold change greater than or equal to 0.04 here: RRIRSRPPRLPRPRPRPKFKPRP
not satisfied

Is shrunken log2 fold change at least 0.04? Consider RRIRCRPPRLPRPRPRPDNYPRP
not satisfied

Assess whether reported shrunken log2 fold change for RRIRTRPPRLPRPRPRPMHAPRP sits at 0.04 or higher.
not satisfied

Assess whether reported shrunken log2 fold change for RRIRARPPRLPRPRPRPKRAPRP sits at 0.04 or higher.
satisfied

I'd appreciate it if you could say whether RRIRVRPPRLPRPRPRPGAQPRP has shrunken log2 fold change at least equal to 0.04.
not satisfied

Please check the record RRIRSRPPRLPRPRPRPRSGPRP and state if its shrunken log2 fold change is at or above 0.04.
satisfied

Could you verify whether the entry RRIRNRPPRLPRPRPRPPNNPRP shows shrunken log2 fold change of no less than 0.04?
not satisfied

Reported shrunken log2 fold change reaches at least 0.04 for RRIRDRPPRLPRPRPRPFWCPRP ?
satisfied

Entry RRIRERPPRLPRPRPRPQDNPRP : is its shrunken log2 fold change no less than 0.04?
not satisfied

Does the reported shrunken log2 fold change for RRIRFRPPRLPRPRPRPRAFPRP fall at or above the 0.04 mark?
satisfied

Would you say RRIRNRPPRLPRPRPRPKLFPRP shows shrunken log2 fold change at minimum 0.04?
satisfied

Dear colleague, could you confirm whether RRIRQRPPRLPRPRPRPSVGPRP has shrunken log2 fold change at or above 0.04?
satisfied

Given RRIRLRPPRLPRPRPRPWSAPRP , state whether its shrunken log2 fold change is at least 0.04.
satisfied

Confirm if shrunken log2 fold change reported for the sequence RRIRNRPPRLPRPRPRPTHAPRP is 0.04 or above.
satisfied

Threshold query (shrunken log2 fold change >= 0.04) on RRIRKRPPRLPRPRPRPVTWPRP
not satisfied

Item RRIRSRPPRLPRPRPRPMDPPRP with shrunken log2 fold change of 0.04 or above?
not satisfied

// inclusive: shrunken log2 fold change at least 0.04? input: RRIRVRPPRLPRPRPRPQNIPRP
not satisfied

Say whether RRIRSRPPRLPRPRPRPYLAPRP shows shrunken log2 fold change of 0.04 or more.
not satisfied

* * *

Test system: Escherichia coli TOP10;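 also: peptides expressed intracellularly from a pBAD plasmid library in pooled LB shake-flask culture, induced with 0.3% L-arabinose, DNA abundance read by NGS, three biological replicates, DESeq2 with apeglm shrinkage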
Experiment: shrunken log2 fold change of peptide-encoding DNA abundance (4.5 h post-induction vs induction); higher = less antimicrobial activity (less host growth inhibition)
Conditions: time post-induction: 4.5 h; library: site-saturation at positions 5, 18, 19, 20
Labels assigned by shrunken log2 fold change range: low-valued = under -0.1, mid-valued = from -0.1 up to 0.3, high-valued = 0.3 and over

Assign a bin to RRIRPRPPRLPRPRPRPCILPRP
low-valued

# bin label for RRIRWRPPRLPRPRPRPLRHPRP
high-valued

Please indicate the class for RRIRTRPPRLPRPRPRPQFMPRP based on its shrunken log2 fold change.
mid-valued

Looking at RRIRGRPPRLPRPRPRPVYEPRP , which class would you pick?
mid-valued

Which category fits this record: RRIRFRPPRLPRPRPRPNNFPRP
low-valued

Please report the category associated with RRIRHRPPRLPRPRPRPNDVPRP , nothing else.
mid-valued

Form field 'band' for RRIRFRPPRLPRPRPRPKYSPRP
low-valued

# bin lookup: classify RRIRHRPPRLPRPRPRPLNEPRP by its shrunken log2 fold change
low-valued

Class? Entry: RRIRARPPRLPRPRPRPSAMPRP
high-valued

Which category fits this record: RRIRFRPPRLPRPRPRPDEWPRP
mid-valued

Which class is correct for the following sequence? RRIRIRPPRLPRPRPRPFWGPRP
low-valued

Place this sequence in its band: RRIRLRPPRLPRPRPRPTYRPRP
low-valued

Which class does RRIRQRPPRLPRPRPRPYLLPRP fall in?
mid-valued

Categorize the following entry: RRIRVRPPRLPRPRPRPGAEPRP
mid-valued

Pick a category. Item: RRIRWRPPRLPRPRPRPEVGPRP
high-valued
